The reported numbers originate from patent US9932333B2.

system-under-test: Aβ1-42 aggregated in advance (Homo sapiens)
Sequence (P05067 672-713 limits assumed): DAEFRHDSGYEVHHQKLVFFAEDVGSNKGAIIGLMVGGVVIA
assay-notes: Aβ affinity (Kd association curve from fluorescence intensity)
experimental-parameters: aggregated Aβ1-42 0.5 μM, phosphate buffer pH 7.4, room temperature 1 hour
property-label: pKd
Give bare numbers, as −log10 of the molar value.

What pKd value was documented for this compound, `C[n+]1c(-c2cc3c4c(c2)CCCN4CCC3)sc2cc(Br)ccc21` ?
5.96
